// reported MRT last per item
procedure summary: Pharmacokinetics in CD-1 mice after oral administration
Format: in vivo, mouse
stated conditions: male, CD-1, mouse, in vivo, po, 10 mg/kg

compound	MRT last (h)
Clc1ccc2c(NC[C@@H]3CCCN4CCCC[C@H]34)ccnc2c1 [(−)-AM1]	3.33
Clc1ccc2c(NC[C@H]3CCCN4CCCC[C@@H]34)ccnc2c1 [(+)-AM1]	2.7

====

procedure summary: Pharmacokinetics in CD-1 mice after oral administration
Format: in vivo, mouse
stated conditions: male, CD-1, mouse, in vivo, po, 10 mg/kg
quantity: Tmax

compound	result
Clc1ccc2c(NC[C@H]3CCCN4CCCC[C@@H]34)ccnc2c1 [(+)-AM1]	2 h
Clc1ccc2c(NC[C@@H]3CCCN4CCCC[C@H]34)ccnc2c1 [(−)-AM1]	0.25 h

====

assay target: CYP3A4 (Homo sapiens, UniProt P08684)
Sequence (P08684 whole entry): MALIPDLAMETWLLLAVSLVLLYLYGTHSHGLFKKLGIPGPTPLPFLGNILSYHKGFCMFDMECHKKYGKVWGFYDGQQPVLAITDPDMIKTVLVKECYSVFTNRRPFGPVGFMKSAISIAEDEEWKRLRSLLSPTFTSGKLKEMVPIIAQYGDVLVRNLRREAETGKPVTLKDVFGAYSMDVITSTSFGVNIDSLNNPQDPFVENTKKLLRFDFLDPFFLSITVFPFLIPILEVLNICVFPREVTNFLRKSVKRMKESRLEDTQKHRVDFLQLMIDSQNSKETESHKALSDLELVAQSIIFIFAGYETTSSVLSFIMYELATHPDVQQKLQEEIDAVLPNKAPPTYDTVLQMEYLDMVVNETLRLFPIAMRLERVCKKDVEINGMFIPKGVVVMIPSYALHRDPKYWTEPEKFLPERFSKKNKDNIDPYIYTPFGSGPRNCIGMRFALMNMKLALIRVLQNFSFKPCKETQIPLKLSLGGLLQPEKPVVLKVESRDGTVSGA
procedure summary: in vitro
quantity: inhibition at 3 µM

compound	result
Clc1ccc2c(NC[C@H]3CCCN4CCCC[C@@H]34)ccnc2c1 [(+)-AM1]	14.3%

====

assay target: CYP2C19 (Homo sapiens, UniProt P33261)
Sequence (P33261 whole entry): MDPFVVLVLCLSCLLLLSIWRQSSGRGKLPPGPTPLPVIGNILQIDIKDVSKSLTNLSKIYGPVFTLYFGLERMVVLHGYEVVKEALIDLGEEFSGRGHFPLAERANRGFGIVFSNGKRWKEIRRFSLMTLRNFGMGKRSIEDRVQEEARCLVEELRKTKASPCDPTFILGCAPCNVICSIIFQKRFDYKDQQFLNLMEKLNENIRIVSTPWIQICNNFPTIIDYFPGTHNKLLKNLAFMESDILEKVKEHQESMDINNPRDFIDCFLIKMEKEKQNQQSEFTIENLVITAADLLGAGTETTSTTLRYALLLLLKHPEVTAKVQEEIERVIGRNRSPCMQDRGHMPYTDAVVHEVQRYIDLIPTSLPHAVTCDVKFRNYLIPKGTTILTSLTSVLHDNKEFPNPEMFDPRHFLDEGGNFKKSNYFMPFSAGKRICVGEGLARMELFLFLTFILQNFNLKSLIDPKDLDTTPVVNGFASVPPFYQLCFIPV
procedure summary: in vitro

molecule	inhibition at 3 µM
Clc1ccc2c(NC[C@H]3CCCN4CCCC[C@@H]34)ccnc2c1 [(+)-AM1]	9%

====

procedure summary: Maximum tolerated dose in CD1 mice
stated conditions: CD1, mouse, in vivo, ip
quantity: MTD (mg/kg)

molecule	quantity	number
CCN(CC)CCCC(C)Nc1ccnc2cc(Cl)ccc12 (stereo not shown) [CQ, chloroquine, reference compound]	MTD	50

====

assay target: CYP2D6 (Homo sapiens)
Sequence (P10635 whole entry): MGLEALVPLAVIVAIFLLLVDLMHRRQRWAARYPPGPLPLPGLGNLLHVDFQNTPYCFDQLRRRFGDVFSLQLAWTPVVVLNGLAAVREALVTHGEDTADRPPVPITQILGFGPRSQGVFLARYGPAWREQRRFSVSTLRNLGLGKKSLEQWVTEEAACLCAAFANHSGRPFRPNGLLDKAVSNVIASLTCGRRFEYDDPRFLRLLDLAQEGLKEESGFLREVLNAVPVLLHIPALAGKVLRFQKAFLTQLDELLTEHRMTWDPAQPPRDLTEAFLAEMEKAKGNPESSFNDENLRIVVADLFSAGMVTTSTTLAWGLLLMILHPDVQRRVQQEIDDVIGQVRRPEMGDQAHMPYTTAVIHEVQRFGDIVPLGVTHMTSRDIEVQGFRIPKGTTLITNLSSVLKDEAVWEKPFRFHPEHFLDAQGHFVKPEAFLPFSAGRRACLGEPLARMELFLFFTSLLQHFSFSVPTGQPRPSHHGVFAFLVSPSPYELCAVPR
procedure summary: in vitro

compound	assay target	inhibition at 3 µM, %
Clc1ccc2c(NC[C@H]3CCCN4CCCC[C@@H]34)ccnc2c1 [(+)-AM1]	CYP2D6 (Homo sapiens)	62.2

====

assay target: UniProt:P05177
Sequence (P05177 whole entry): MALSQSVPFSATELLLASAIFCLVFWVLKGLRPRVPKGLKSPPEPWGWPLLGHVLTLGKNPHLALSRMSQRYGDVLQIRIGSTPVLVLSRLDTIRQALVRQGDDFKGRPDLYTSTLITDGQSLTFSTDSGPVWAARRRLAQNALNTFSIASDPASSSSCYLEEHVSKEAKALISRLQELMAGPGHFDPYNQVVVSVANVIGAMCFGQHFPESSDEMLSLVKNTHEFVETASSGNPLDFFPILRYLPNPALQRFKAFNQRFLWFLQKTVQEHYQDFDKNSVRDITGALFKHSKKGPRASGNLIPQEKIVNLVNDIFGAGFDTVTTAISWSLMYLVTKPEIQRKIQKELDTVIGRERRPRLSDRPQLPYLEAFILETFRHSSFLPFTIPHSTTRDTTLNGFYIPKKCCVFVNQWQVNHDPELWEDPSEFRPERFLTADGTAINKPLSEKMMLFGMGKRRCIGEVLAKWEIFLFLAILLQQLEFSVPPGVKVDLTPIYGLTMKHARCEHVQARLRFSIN
procedure summary: in vitro
quantity: inhibition at 3 µM (%)

compound	quantity	units symbol	limit operator	number
Clc1ccc2c(NC[C@@H]3CCCN4CCCC[C@H]34)ccnc2c1 [(−)-AM1]	inhibition at 3 µM	%	<	5
Clc1ccc2c(NC[C@H]3CCCN4CCCC[C@@H]34)ccnc2c1 [(+)-AM1]	inhibition at 3 µM	%	=	8.3
